target: T1, human programmed cell death protein 1 (hPD-1) C93S (aa 24-167) (Homo sapiens, UniProt Q15116, C93S); test: SPR; Carterra LSA; Fab from the ammonium sulfate precipitate of the culture supernatant immobilised on a NiHC200M chip; hPD-1 (1-1024 nM) or mPD-1-Fc (4-1024 nM) as analyte, fourfold dilution series, no regeneration; HBS-EP pH 7.4, 25 °C; medians over the spots of a construct, KD = koff/kon; details: one partner purified
T1 construct: made as a fusion with a TEV site and human Fc; the Fc was cut off with TEV protease; source: Expi293F, purified (Protein A, TEV cleavage of Fc, SEC; monomer fractions); not shown: Fc (human), C-terminal, cleaved
T1 sequence (Q15116 24-167 C93S): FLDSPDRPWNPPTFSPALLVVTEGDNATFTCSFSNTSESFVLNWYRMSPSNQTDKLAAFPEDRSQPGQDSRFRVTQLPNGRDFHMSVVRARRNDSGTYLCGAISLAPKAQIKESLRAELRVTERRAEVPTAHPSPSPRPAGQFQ
REPORTED_PROPERTY: kon (M⁻¹ s⁻¹)
Just the number in M⁻¹ s⁻¹, nothing appended.

1. toripalimab Fab H.Y111A (Fab, V domains shown, heavy chain of Sm3 with this change; numbers count from the chain's first residue; as the light chain of Sm3; source: Brevibacillus, culture supernatant (ammonium sulfate precipitate); not shown: 6xHis, C-terminal, kept; 6xHN, C-terminal, kept) VH: QGQLVQSGAEVKKPGASVKVSCKASGYTFTDYEMHWVRQAPIHGLEWIGVIESETGGTAYNQKFKGRVTITADKSTSTAYMELSSLRSEDTAVYYCAREGITTVATTYYWAFDVWGQGTTVTVSS VL: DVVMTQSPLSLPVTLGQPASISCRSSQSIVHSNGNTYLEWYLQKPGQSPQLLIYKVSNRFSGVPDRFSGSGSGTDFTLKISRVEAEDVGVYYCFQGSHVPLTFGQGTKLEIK : 37200
2. toripalimab Fab L.V99E (Fab, V domains shown, as the heavy chain of Sm3; light chain of Sm3 with this change; numbers count from the chain's first residue; source: Brevibacillus, culture supernatant (ammonium sulfate precipitate); not shown: 6xHis, C-terminal, kept; 6xHN, C-terminal, kept) VH: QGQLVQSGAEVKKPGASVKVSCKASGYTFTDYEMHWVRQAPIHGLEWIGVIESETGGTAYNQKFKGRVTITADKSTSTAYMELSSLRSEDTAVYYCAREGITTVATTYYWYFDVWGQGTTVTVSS VL: DVVMTQSPLSLPVTLGQPASISCRSSQSIVHSNGNTYLEWYLQKPGQSPQLLIYKVSNRFSGVPDRFSGSGSGTDFTLKISRVEAEDVGVYYCFQGSHEPLTFGQGTKLEIK : 9690

Now for another entry.
Q: Supply reported kon belonging to this binder: toripalimab Fab H.N61A (Fab, V domains shown, heavy chain of Sm3 with this change; numbers count from the chain's first residue; as the light chain of Sm3; source: Brevibacillus, culture supernatant (ammonium sulfate precipitate); not shown: 6xHis, C-terminal, kept; 6xHN, C-terminal, kept) VH: QGQLVQSGAEVKKPGASVKVSCKASGYTFTDYEMHWVRQAPIHGLEWIGVIESETGGTAYAQKFKGRVTITADKSTSTAYMELSSLRSEDTAVYYCAREGITTVATTYYWYFDVWGQGTTVTVSS VL: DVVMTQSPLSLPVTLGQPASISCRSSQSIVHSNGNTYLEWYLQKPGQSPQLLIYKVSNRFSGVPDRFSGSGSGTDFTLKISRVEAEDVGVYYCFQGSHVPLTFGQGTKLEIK
Ans: 28100
